# protocol.text: Cytotoxicity against human HaCaT cells assessed as cell viability at 5 uM incubated for 1 day relative to control
# Assay type: toxicity, cell-based
# measurement.parameters: read-out: Activity
This section presents compounds with their documented viability at 24 h, 5 µM values.
Please state the figure in %; there is no need to write the unit.

{"columns": ["sample.smiles", "value.unit", "viability at 24 h, 5 µM"],
 "data": [
  ["COc1cc(Nc2ncc(C)c(Nc3cccc(S(=O)(=O)N4CCOCC4)c3)n2)cc(OC)c1OC", "%", 75.3]
]}

Continue with the next compound.
Look at this compound and give its reported viability at 24 h, 5 µM. Cc1cnc(Nc2ccc(N3CCN(C)CC3)cc2)nc1Nc1cccc(S(=O)(=O)NC(C)(C)C)c1 39.4

* * *

# Test system: CAKI-1
# protocol.text: Cytotoxicity against human CAKI-1 cells assessed as reduction in cell viability incubated for 1 day by MTT assay
# Assay type: functional, cell-based
# measurement.parameters: CAKI-1, 24 h
// reported pIC50 for each item listed
Entry type: numeric. Quantity: pIC50, the -log10 of concentration in molar units.

{"columns": ["sample.smiles", "endpoint.label", "observed"],
 "data": [
  ["COc1cc(Nc2ncc(C)c(Nc3cccc(S(=O)(=O)N4CCOCC4)c3)n2)cc(OC)c1OC", "pIC50", 5.74]
]}

What measured pIC50 goes with COc1cc(Nc2ncc(C)c(Nc3cccc(S(=O)(=O)NC(C)(C)C)c3)n2)cc(OC)c1 ? 5.56

// pIC50 lookup, key: Cc1cnc(Nc2ccc(N3CCN(C)CC3)cc2)nc1Nc1cccc(S(=O)(=O)NC(C)(C)C)c1 5.82

// lookup pIC50 for COc1cnccc1Nc1nc(-c2nn(Cc3c(F)cc(OCCO)cc3F)c3ccccc23)ncc1OC 4.61

* * *

# target.desc: Mitotic checkpoint serine/threonine-protein kinase BUB1 beta (Homo sapiens, UniProt O60566)
# Sequence (O60566 whole entry): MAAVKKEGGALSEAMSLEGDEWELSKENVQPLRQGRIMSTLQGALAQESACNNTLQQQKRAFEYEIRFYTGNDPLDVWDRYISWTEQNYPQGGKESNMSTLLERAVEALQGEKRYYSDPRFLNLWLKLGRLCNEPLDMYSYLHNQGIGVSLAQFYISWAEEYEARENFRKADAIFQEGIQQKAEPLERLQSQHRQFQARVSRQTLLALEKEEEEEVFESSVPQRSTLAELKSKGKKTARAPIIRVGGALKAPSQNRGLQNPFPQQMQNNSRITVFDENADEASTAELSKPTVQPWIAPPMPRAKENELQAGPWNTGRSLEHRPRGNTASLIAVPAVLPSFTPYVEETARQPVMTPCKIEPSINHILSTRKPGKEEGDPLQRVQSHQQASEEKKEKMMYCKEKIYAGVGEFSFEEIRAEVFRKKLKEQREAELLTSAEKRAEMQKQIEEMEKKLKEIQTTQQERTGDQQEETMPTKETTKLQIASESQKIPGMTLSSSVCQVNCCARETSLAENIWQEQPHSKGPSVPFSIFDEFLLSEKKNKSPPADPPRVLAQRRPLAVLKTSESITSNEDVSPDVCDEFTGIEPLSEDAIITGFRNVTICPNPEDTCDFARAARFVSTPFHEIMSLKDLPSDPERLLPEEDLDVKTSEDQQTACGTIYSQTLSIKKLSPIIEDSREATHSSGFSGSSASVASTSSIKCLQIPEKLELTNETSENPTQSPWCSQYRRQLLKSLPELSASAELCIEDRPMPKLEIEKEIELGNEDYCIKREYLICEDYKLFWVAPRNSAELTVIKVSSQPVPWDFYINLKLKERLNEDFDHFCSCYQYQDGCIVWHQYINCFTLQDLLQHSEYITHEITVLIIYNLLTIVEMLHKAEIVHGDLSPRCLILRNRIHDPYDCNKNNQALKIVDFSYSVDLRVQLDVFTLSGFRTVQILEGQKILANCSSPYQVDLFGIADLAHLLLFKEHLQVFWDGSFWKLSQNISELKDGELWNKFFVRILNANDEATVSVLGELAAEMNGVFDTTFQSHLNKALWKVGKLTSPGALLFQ
# protocol.text: Inhibition of recombinant BUB1B (unknown origin) incubated for 60 mins in presence of [gamma-33P]-ATP by microplate scintillation counter analysis
IC50 values for the compounds below.
State the answer as a number, implicitly in µM.

{"columns": ["compound", "value.unit", "IC50"],
 "data": [
  ["Cc1cc(Nc2ncc(Cl)c(Nc3ccccc3S(=O)(=O)C(C)C)n2)c(OC(C)C)cc1C1CCNCC1 [CERITINIB]", "µM", 13.1],
  ["COc1cc(Nc2ncc(C)c(Nc3cccc(S(=O)(=O)N4CCOCC4)c3)n2)cc(OC)c1OC", "µM", 9.67]
]}

Now consider the entry below.
Reported IC50, compound Cc1cnc(Nc2ccc(N3CCN(C)CC3)cc2)nc1Nc1cccc(S(=O)(=O)NC(C)(C)C)c1 : ____ 67.3

* * *

# protocol.text: Cytotoxicity against human HaCaT cells assessed as cell viability at 1 uM incubated for 1 day relative to control
# Type: toxicity, cell-based
# measurement.parameters: read-out: Activity
Reported viability at 24 h, 1 µM is given for each of the following compounds.
Write the value in % as a bare number.

viability at 24 h, 1 µM lookup needed for Cc1cnc(Nc2ccc(N3CCN(C)CC3)cc2)nc1Nc1cccc(S(=O)(=O)NC(C)(C)C)c1 , thanks. 76.4

viability at 24 h, 1 µM lookup needed for COc1cc(Nc2ncc(C)c(Nc3cccc(S(=O)(=O)N4CCOCC4)c3)n2)cc(OC)c1OC , thanks. 105

Where do these numbers come from? They come from ChEMBL document CHEMBL6121040.
